System: alkaline phosphatase activity in T47D cells
MEASUREMENT PROTOCOL: Effects of progestins and antiprogestins on alkaline phosphatase activity in T47D cells
Type: cell-based
MEASUREMENT SETUP: Homo sapiens, T47D, 24 h; reference antiprogestin, in the presence of 1 nM progesterone; typical value
MEASUREMENT NAME: IC50

INPUT: Given the compound CC#C[C@]1(O)CC[C@H]2[C@@H]3CCC4=CC(=O)CCC4=C3[C@@H](c3ccc(N(C)C)cc3)C[C@@]21C [RU486, reference compound] , what is its reported IC50?
OUTPUT: 0.1 to 2 nM
